tgt: endogenously expressed human MSR1 on PMA-treated THP-1 cells (human) (UniProt P21757)
Sequence (P21757 whole entry): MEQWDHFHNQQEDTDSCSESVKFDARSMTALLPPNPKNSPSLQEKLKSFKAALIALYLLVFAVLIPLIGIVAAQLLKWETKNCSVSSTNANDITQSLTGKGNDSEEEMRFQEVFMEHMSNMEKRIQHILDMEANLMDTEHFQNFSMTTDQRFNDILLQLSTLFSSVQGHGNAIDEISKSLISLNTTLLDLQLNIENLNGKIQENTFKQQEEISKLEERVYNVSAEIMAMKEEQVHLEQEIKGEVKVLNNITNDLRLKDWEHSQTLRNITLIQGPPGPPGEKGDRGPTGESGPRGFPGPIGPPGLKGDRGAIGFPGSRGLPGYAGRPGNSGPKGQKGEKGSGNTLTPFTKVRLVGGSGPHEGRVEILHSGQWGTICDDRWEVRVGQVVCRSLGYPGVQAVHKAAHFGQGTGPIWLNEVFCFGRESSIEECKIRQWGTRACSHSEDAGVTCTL
assay.overview: confocal imaging, differentiated THP-1 cells, Alexa 488 secondary
Recorded Total Binding at 37° C. (RFU), one value per entry.
Give the value, in units of RFU, as a plain number.

binder	experimental.value
H1H21234N-N297Q (antibody, human IgG1, V domains shown) VH: QVQLQESGPGLVKPSETLSLTCTVTGGSISRNYWSWIRQPPGKGLEWIGYIYYSGSIDYNPSLKSRVTISVDTSKNQFSLKLSSMTAADTAVYYCARDRWNWKYGMDVWGQGTTVIVSS VL: EIVLTQSPGTLSLSPGERATLSCRASQTVRNNYLAWYHQKPGQAPRLLIYGASSRATGIPDRFSGSGSGTDFTLTISRLEPEDFTVYYCHQYGNSPWTFGQGTKMEIKR	5.45e+06

Now take the following binder into account.
## Task Quickly give me recorded Total Binding at 37° C. (RFU) for H1H27734P-N297Q (antibody, human IgG1, V domains shown) VH: EVQLVESRGGLVQPGGSLRLSCAASGFTFSSYAMSWVRQAPGKGLEWVSAISGSGGSTFYADSVKGRFTISRDNSKNTVYLQMNSLRAEDTAVYYCAKALVLRFLEWLGDYWGQGTLVTVSS VL: DIQMTQSPSTLSASVGDRVTITCRASQSISSWLAWFQQKPGKAPKLLIYKASSLESGVPSRFSGSGSGTEFTLTISSLQPDDFATYYCQQYKSYWTFGQGTKVEIKR
## Result 1.15e+06
